target: T1, myosin VI^1050–1131 of the long isoform, cleaved from GST and purified (human, UniProt Q9UM54 1050-1131); assay: fluorescence polarisation; 20–50 nM 5-FAM-conjugated CLCa peptide titrated with purified myosin VI fragment from ~150 µM, 22 °C, 384-well plate; conditions: both partners purified
T1 construct: 15N- or 13C,15N-labelled in some NMR samples; also called Myo6; source: E. coli Rosetta (DE3) or BL21 (DE3), GST fusion cleaved with PreScission Protease, purified (ion exchange or SEC)
T1 sequence (Q9UM54 1050-1131): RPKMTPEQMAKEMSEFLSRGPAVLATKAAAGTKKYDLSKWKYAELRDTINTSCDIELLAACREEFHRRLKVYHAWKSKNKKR
Ends that are not written are not given here. * marks the point of attachment. 5FAM = O=C1OC2(c3ccc(O)cc3Oc3cc(O)ccc32)c2ccc(C(=O)*)cc21
Property: Kd (nM)

• 5FAM-IENDEAFAILDGGAPG (peptide, UniProt P09496 46-61, looked up, clathrin light chain A (CLCa), human, amino acids 46–61; also called CLCa^46–61; source: synthetic peptide (GenScript)) [5-carboxyfluorescein (5-FAM)-conjugated CLCa peptide 46–61] = 400
